TARGET OF ASSAY: CXCR4 (Homo sapiens)
Sequence (P61073 whole entry): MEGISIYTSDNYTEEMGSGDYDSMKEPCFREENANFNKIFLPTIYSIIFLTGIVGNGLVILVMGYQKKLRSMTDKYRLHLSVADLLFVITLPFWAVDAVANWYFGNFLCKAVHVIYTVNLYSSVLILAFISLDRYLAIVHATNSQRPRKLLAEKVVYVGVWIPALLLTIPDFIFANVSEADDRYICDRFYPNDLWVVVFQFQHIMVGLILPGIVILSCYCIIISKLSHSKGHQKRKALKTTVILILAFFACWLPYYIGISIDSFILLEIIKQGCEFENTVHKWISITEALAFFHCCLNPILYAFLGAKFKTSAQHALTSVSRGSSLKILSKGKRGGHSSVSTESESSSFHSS
RUN DESCRIPTION: β-arrestin recruitment, 384-well, Tango CXCR4-bla U2OS cells, normalized to SDF-1α
Format: cell-based
Design: host or cells: U2OS
SETUP CONDITIONS: normalized to SDF-1; read-out: TANGO β-arrestin EC50
pEC50: −log10 of the molar value.
Reported pEC50 values follow for various compounds

CCOc1ccccc1-c1nnc2n1N=C(c1ccc(N3CCCC3=O)cc1)CS2 ... > 5.30
COc1ccc(C2=Nn3c(nnc3-c3ccccc3OC)SC2)cc1 [Entry 1] ... > 5.30
CCOc1ccccc1-c1nnc2n1N=C(c1ccc(NC(=O)c3ccccc3C(=O)O)cc1)CS2 ... < 5.00
CCOc1ccccc1-c1nnc2n1N=C(c1ccc(C(=O)O)cc1)CS2 ... < 5.00

# query: pEC50 of entry CCOc1ccccc1-c1nnc2n1N=C(c1ccc(N3CCCC3)cc1)CS2 [Entry 14]
> 5.30

###

TARGET OF ASSAY: CXCR4 (Homo sapiens)
RUN DESCRIPTION: β-arrestin recruitment, 384-well, Tango CXCR4-bla U2OS cells, normalized to SDF-1α
Format: cell-based
Parameters: host or cells: U2OS
SETUP CONDITIONS: normalized to SDF-1α; read-out: ß-arrestin recruitment EC50
pEC50: −log10 of the molar value.
READOUT TYPE: pEC50

# query: pEC50 of entry COc1ccccc1-c1nnc2n1N=C(c1ccc([N+](=O)[O-])cc1)CS2
< 4.10

# query: pEC50 of entry CCOC(=O)CNc1ccc(C2=Nn3c(nnc3-c3ccccc3OCC)SC2)cc1
< 5.30

# query: pEC50 of entry CCOc1ccccc1-c1nnc2n1N=C(c1ccc(NC(=O)C(C)C)cc1)CS2
< 5.00

# query: pEC50 of entry CCOc1ccccc1-c1nnc2n1N=C(c1ccc(NC(C)=O)cc1)CS2
< 5.00
